# protocol.summary: yeast display, Sf9 membrane polyspecificity reagent, FACS + sequencing; frameworks hold sequencing errors
attribute.measured: polyreactivity (PSR sort gate)

* QVQLVESGGGLVQAGGSLRLSCAASGFIFRYYAMGWYRQAPGKERELVATISASGGRTYYADSVKGRFTISRDNAKNTVYLQMNSLKPEDTAVYYCAVRPYWLGTYAPVAFDYWGQGTQVTVSS | high polyreactivity
* QVQLVESGGGLVQAGGSLRLSCAASGSTFVSYTMGWYRQAPGKERELVAAISYNGARTYYADSVKGRFTISRDNAKNTVYLQMISLKPEDTAVYDCARRYYSQYDYWGQGTQVTVSS | high polyreactivity
* QVQLVESGGGLVQAGGSLRLSCAASGRIFSSNAMGWYRQAPGKEREFVAAISWRTGSTYYADSVKGRFTISRDNAKNTVYLQMNSLKPEDTAVYYCNKRTGSYGYPYYYWGQGTQVTVSS | high polyreactivity
* QVQLVESGGGLVQAGGSLRLSCAASGSIFNYNDMGWYRQAPGKERELVAAIDSSGTSTYYADSVKGRFTISRDNAKNTVYLQMNSLKPEDTAVYYCNADSSLGFGYWGQGTQVTVSS | low polyreactivity
* QVQLVESGGGLVQAGGSLRLSCAASGSIFSVYAMGWYIQAPGKEREFVASISGGSGRTYYADSVKGRFTISRDNAKNTVYLQMNSLKPEDTAVYYCAAAYWAYDTGKMGYWGQGTQVTVSS | low polyreactivity
* QVQLEESGGGLVQAGGSLRLTCAASGFTFGYYTMGWYRQAPGQERELVAAISSGGSTNYADSVKGRFTISRDNAKNTVYLEMNSLKPEDTAVYYCTATQIGPYYLPFDSWGQGTQVTVSS | high polyreactivity
* QVQLVESGGGLVQAGGSLRLSCAASGFIFFKNAMGWYRQAPGKERELVDVISTSGGRTYYADSVKGRFTISRDYAKNTVYLQMNSLKPEDTAVYYCAAGDQYKTRRNGYGYWGQGTQVTVSS | high polyreactivity
* QVQLVESGGGLVQAGGSLRLSSAASGFTFKGNALGWYRQAPGKERELVATITQSAGSTYYADSVKGRFTISRDNAKNTVYLQMNSLKPEDTAVYYCNADPITLYYYSWYNYWGQGTQGTVSS | low polyreactivity
* QVQLVDSGGGLVDAGGRLRLSCAASGRTFYAYPMGGYRQAPRTERELVAAITKRDGITFYADSVKGRFTISRDNAKNTVYLQMKSLKPEDTAVDYCDATGYVGGIYGHYPRGYWGQCTQVTVSS | high polyreactivity
* QVQLVESGGGLVQAGGSLRLSCAASGSTFSIYARGWYRPAPGKERELVAAIRWSGGRTYYADSVKGRFTISRDNAKNTVYLQMNSLKPEDTAVYYCAAESTGSGYDYWGQGTQVTVSS | high polyreactivity
* QVQLVESGGGLVQAGGSLRLSCAASGSIFYAYAMGWYRQAPGKEMELVAAIDTSGGRTYYADSVKGRFTISRDNAKNTVYLQLNSLKPEDTAVYYCDAECPCYNEHYYWGQGTQVTVSS | high polyreactivity
* QVHLVESGGGLVQAGGSLRLSCAASGSTFSGNGMGWYRQAPGKERELVAAINWYGGTTYYADSVKGRFTISRDNAKNTVYLQMNSLKQEDTAVYYCARESTLTYYSDDFDYWGQGTQVTVSS | low polyreactivity
* QVQLVESGGGLVQAGGSLRLSCAASGLIFGVNAMGWYRQAPGKERELVAVISRGGRTNYADSVKGRFTISRDNAKNTVYLQMNSLKPEDTAVYYCATYYTNKVPARYYWGQGTQVTVSS | high polyreactivity
* QVQLVDSGGGLVQAGGILRLSCASSGITFPGYDMGWYRQAPGKERDLVARISRSGGSTYYADSVKGRFTISRDNAKNTVYLQMNSLKPEETAVYYCAAGAYRSGGYRFDYWGQGTQVTVSS | low polyreactivity
* QVQLVESGGGLVQAGGSLRLSCAASGSIYIVNVMGWYRQAPGKERELVAGITTNGGITYYADSVKGRFTISRDNAKNTVYLQMNSLKPEDTAVYYCATRSGSPSSIEMDYWGQGTQVTVSS | low polyreactivity
* QVQLVESGGGLVQAGGSLRLSCAASGSTFFDYAMGWYRQAPGKEREFVAAISRSGDTNYADSVKGRFTISRDNAKNTVYLQMNSLKPEDTAVYYCAKDWAYRRHWVGFYYWGQGTQVTVSS | low polyreactivity
* QVQLVESGAGLVQAGGILRLSCAASGLTFSRYTMGWSRQAPGKERELVAAITSSGGSTYYADSVKGRFTISRDNAKNTVSLEMNSLKPEDTAVNYCAARYPGTRGDGYWGLGTQVTVSS | high polyreactivity
* QVQLVESGGGLVQAGGSLRLSCAASGSTFWPYAMGWYRQAPGKERELVAAITSSGGSTYYADSVKGRFTISRDNAKNTVYLQMNSLKPEETAVYYCAADWSNLGAYDYWGQGTQVTVSS | low polyreactivity
* QVQLVESGGGLVQAGGSLRLSCAASGRIFRQYAMGWYRQAPGKERELVAAITSGGSTNYADSVKGRFTISRDNAKNTVYLQMNSLKPEDTAVYYCNAAGGTRSGVQYDYWGQGTQVTVSS | low polyreactivity
* QVQLVESGGGLVQAGGSLRLTCAASGRIFYDKSMGWYRQSPGKERELVAAIRRSGGDTYYADSVKGRFTISRDIAKNTVYLQMNSLKTVDTAVYYCADTYSDYGRRYGYWGQGTLVTVSS | high polyreactivity
* QVQLVESGGGLVLAGGSLRLTCAASGRTFSQYTMGWYRQAPGKERELVAAISVSGTSTYYADSVKGRFTISRDNAKNTVYLQMNSLKPEDTAVYYCAAGYQRITRFAHRKYGYWGQGTQVTVSS | high polyreactivity
